Hello, the source for this data is patent US9926297B2, in case you need it.

biological target: human muscarinic M4 receptor (Homo sapiens); construct: expressed in transfected cells; assay: Alphascreen Surefire phospho-ERK1/2 functional assay, M4; format: cell-based; details: CHO cells stably expressing human M4; phospho-ERK1/2; * = variable results; read-out: pEC50 M4 (converted)
Sequence (P08173 whole entry): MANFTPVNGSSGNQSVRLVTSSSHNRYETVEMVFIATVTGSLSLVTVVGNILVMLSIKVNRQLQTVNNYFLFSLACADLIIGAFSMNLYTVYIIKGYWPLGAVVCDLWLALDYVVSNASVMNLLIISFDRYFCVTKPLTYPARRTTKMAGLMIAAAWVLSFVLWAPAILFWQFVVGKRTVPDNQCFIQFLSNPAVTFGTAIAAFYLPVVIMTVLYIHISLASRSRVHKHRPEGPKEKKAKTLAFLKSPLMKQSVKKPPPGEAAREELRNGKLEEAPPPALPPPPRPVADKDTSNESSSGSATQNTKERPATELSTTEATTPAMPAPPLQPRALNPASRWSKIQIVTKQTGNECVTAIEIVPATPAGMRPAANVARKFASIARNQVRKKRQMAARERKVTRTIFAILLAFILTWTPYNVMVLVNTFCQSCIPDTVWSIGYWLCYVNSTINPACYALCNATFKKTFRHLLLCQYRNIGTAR
Form field: EC50 (one value per entry).
Write the answer as a number in nM, unit excluded.

These recorded examples may help you get a feel for the data.
CCOC(=O)N1CCC2(CC(N3CCC(N4CC(F)(F)C[C@@H]4C(=O)OC)CC3)C2)C1 (single isomer, unassigned) [2-87 Isomer 2] | 15.8
CCOC(=O)N1CCC2(CC(N3CCC([C@@H]4CCCN4C(=O)NC4COC4)CC3)C2)C1 (single isomer, unassigned) [2-56 Isomer 2] | 5.01
CCOC(=O)N1CCC2(CC(N3CCC(N4CCCC[C@@H]4C(=O)N(C)C)CC3)C2)C1 (single isomer, unassigned) [4-17 Isomer 2] | 251

API: the following record is the query input.
Notebook: CCOC(=O)N1CCC2(CC(N3CCC(N4CCCC4c4ccon4)CC3)C2)C1 (single isomer, unassigned) [2-127 Isomer 2] , EC50 read as 10

----------
Target: human muscarinic M1 receptor (Homo sapiens, UniProt P11229)
Sequence (P11229 1-460): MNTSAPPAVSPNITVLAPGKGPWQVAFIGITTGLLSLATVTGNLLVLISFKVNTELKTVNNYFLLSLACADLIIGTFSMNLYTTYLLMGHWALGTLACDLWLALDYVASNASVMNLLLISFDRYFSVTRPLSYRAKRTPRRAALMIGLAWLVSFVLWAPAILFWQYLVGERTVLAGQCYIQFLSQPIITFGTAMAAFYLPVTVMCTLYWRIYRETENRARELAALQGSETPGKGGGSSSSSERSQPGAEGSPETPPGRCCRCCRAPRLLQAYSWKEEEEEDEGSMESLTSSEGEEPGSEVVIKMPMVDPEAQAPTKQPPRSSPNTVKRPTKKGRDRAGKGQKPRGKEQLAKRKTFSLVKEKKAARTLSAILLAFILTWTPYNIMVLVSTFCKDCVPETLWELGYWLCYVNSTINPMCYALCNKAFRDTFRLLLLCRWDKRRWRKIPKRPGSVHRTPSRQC
Assay: Alphascreen Surefire phospho-ERK1/2 functional assay, M1
Assay type: cell-based
Conditions: CHO cells stably expressing human M1; phospho-ERK1/2; * = variable results; read-out: pEC50 M1 (converted)
reported.property: log10(EC50) (log10 of the value in nM)
Please interpret these as log10 of EC50 where EC50 is in nM.

These recorded examples may help you get a feel for the data.
CCOC(=O)N1CCC2(CC(N3CCC(N4CC(F)(F)C[C@@H]4C(=O)OC)CC3)C2)C1 (single isomer, unassigned) [2-87 Isomer 2] | 2.60
CCOC(=O)N1CCC2(CC(N3CCC([C@@H]4CCCN4C(=O)N(C)OC)CC3)C2)C1 (single isomer, unassigned) [2-34 Isomer 1] | 3.30
CCOC(=O)N1CCC2(CC(N3CCC([C@@H]4CCCN4C(=O)NC4(C)CCC4)CC3)C2)C1 (single isomer, unassigned) [2-35 Isomer 2] | 2.60
CCOC(=O)N1CCC2(CC(N3CCC([C@@H]4CCCN4C(=O)N4CCC4)CC3)C2)C1 (single isomer, unassigned) [2-27 Isomer 2] | 1.50
CCOC(=O)N1CCC2(CC(N3CCC(c4c(C)cnn4C)CC3)C2)C1 (single isomer, unassigned) [1-58 Isomer 2] | 2.90
CCOC(=O)N1CCC2(CC(N3CCC(c4cccc(OC)n4)CC3)C2)C1 (single isomer, unassigned) [3-13 Isomer 2] | 1.10
CCOC(=O)N1CCC2(CC(N3CCC(N4CCCC[C@H]4C(=O)NC)CC3)C2)C1 (single isomer, unassigned) [4-18 Isomer 2] | 3.50

Notebook: COC(=O)N1CCC2(CC(N3CCC(c4nc(Cl)c(Cl)n4C)CC3)C2)C1 (single isomer, unassigned) [1-16 Isomer 2] , log10(EC50) read as 3.20
